- Experimental target: T1, recombinant human VEGF165 (human, UniProt P15692-4 27-191)
- T1 construct: also called hVEGF165; rhVEGF165
- T1 sequence (P15692 other isoform, or with tags, fused parts or gaps limits assumed): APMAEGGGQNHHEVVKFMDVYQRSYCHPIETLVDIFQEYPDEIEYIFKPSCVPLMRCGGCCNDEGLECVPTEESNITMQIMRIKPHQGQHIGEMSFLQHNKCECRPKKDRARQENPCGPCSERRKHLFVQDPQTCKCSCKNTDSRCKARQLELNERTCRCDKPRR
- Measurement description: SPR Biacore T100, Two State Reaction model; KD = kd1/ka1 * (kd2/(kd2 + ka2))
Exercise: for every item that follows, state its recorded pKd.
One number for each entry, as −log10 of the molar value.

Please go through the list and note pKd for each binder.
1. VEGFBII022 (VHH, biparatopic bivalent VHH in one chain; also called VEGFBII23B04-9GS-5B05) EVQLVESGGGLVQTGDSLRLSCEVSGRTFSSYSMGWFRQAQGKEREFVVAISKGGYKYDSVSLEGRFTISKDNAKNTVYLQINSLKPEDTAVYYCASSRAYGSSRLRLADTYEYWGQGTQVTVSSGGGGSGGGSEVQLVESGGGLVQPGGSLRLSCVASGIRFMSMAWYRQAPGKHRELVARISSGGTTAYVDSVKGRFTISRDNSKNTVYLQMNSLKAEDTAVYYCNTFSSRPNPWGAGTQVTVSS
2. VEGFBII025 (VHH, biparatopic bivalent VHH in one chain; also called VEGFBII10E07-40GS-23B04) EVQLVESGGGLVQAGGSLRLSCAASGRTFSNYAMGWFRQAPGKERVLVADISSSGINTYVADAVKGRFTISRDNAKNTVYLQMNSLKPEDTAVYYCAASAWWYSQMARDNYRYWGQGTQVTVSSGGGGSGGGGSGGGGSGGGGSGGGGSGGGGSGGGGSGGGGSEVQLVESGGGLVQTGDSLRLSCEVSGRTFSSYSMGWFRQAQGKEREFVVAISKGGYKYDSVSLEGRFTISKDNAKNTVYLQINSLKPEDTAVYYCASSRAYGSSRLRLADTYEYWGQGTQVTVSS
3. VEGFBII021 (VHH, biparatopic bivalent VHH in one chain; also called VEGFBII23B04-40GS-5B05) EVQLVESGGGLVQTGDSLRLSCEVSGRTFSSYSMGWFRQAQGKEREFVVAISKGGYKYDSVSLEGRFTISKDNAKNTVYLQINSLKPEDTAVYYCASSRAYGSSRLRLADTYEYWGQGTQVTVSSGGGGSGGGGSGGGGSGGGGSGGGGSGGGGSGGGGSGGGGSEVQLVESGGGLVQPGGSLRLSCVASGIRFMSMAWYRQAPGKHRELVARISSGGTTAYVDSVKGRFTISRDNSKNTVYLQMNSLKAEDTAVYYCNTFSSRPNPWGAGTQVTVSS

1: 9.85; 2: 8.96; 3: 10.15
